Taken from the SangsterLogP compilation.

Note to self: use true (1) only for logP readings below 2; a reading exactly at 2 still gets false (0).

# Structure string, Assigned class
rows = [
    ("Nc1ccc2c(c1)Cc1cc(Br)ccc1-2", "false (0)"),
    ("COc1cc(-c2ccc(N)c(OC)c2)ccc1N", "true (1)"),
    ("Nc1ccc2c3c(cccc13)-c1ccccc1-2", "false (0)"),
    ("Nc1cc(Cl)ccc1O", "true (1)"),
    ("COc1ccc(N)c(C)c1", "true (1)"),
    ("Nc1ccc(Oc2ccc(N)cc2)cc1", "true (1)"),
    ("Nc1cccc2cc3ccccc3cc12", "false (0)"),
    ("Cc1ccc(C)c(N)c1", "true (1)"),
    ("Nc1cc2ccccc2c2ccccc12", "false (0)"),
    ("Cc1ccc(N)cc1N", "true (1)"),
    ("Nc1cccc2c1Cc1ccccc1-2", "false (0)"),
    ("Nc1ccccc1-c1ccccc1N", "true (1)"),
    ("Nc1cccc(C(F)(F)F)c1", "false (0)"),
    ("Nc1ccc2c(c1)Cc1ccccc1-2", "false (0)"),
    ("Cc1ccc(N)c(N)c1", "true (1)"),
]
